# assay-info: folding stability dG unfold from trypsin proteolysis; higher = more stable
The label depends only on folding stability dG unfold: class 1 if it is at least 1 kcal/mol, class 0 if it is smaller.

sequence-string: SAGGSAGGSAGNWKIKNIEPVRLPNNVHIMKFQIPGRSLIFVFDPKNGQKRWIPLKDIKPSAGGSAGGSAGG [r17_286_TrROS]
answer-label: class 0

sequence-string: SAGGSAGGSKIEIHVQVSPELSPEEALERIRREIEEALPEELKDISLDDIIITVYPSHPDVPLSAGGSAGGS [r12_384_TrMRF]
answer-label: class 1

sequence-string: SAGGSAEKVEIKVTYDKETGKVTVEIRVEVDLSEEQLKKLKELAEELGLEVEVTVEVRYEPPPPKESAGGSA [r15_542_TrROS_Hall]
answer-label: class 1

sequence-string: SAGGSAGGSAGMITIYAPPSVPVEEVREEVKEKIKKENPNDPKEVKGVEVDPNGSLEELESAGGSAGGSAGG [r17_43_JUSTAS]
answer-label: class 0

sequence-string: SAGGSAGGSAGPNIYVSIKWKHNNGPVTHQIPIPPNDPPEILDEMSKQPGFKVTDIEVMPSAGGSAGGSAGG [r11_692_TrROS]
answer-label: class 0

sequence-string: SAGGSAGGSAKPKPVETVEVTVTGKDGKKYKVTVVYDEKTGKLYVKYNGKIYKVDSLEEALKSAGGSAGGSA [r18_67_TrROS_Hall]
answer-label: class 1

sequence-string: SAGGSAGGDPPNVKIEPEIEPRRDPDGKPYVKIPYTIELPDGRPIQIDMWIDPKNGNQGPHIHISAGGSAGG [r6_298_TrROS]
answer-label: class 0

sequence-string: SAGGSAGGSAGGGMTPVTTTTTVTVSPDATPVNFTTPDGTTVTVTPVPSSDTATVTTTVSSAGGSAGGSAGG [r7_796_JUSTAS]
answer-label: class 1

sequence-string: GSMTIPVVLPPGVRLPLSELWAIAKQYGGKLTATVYDPETGTSTSVTFPGGQLGDSTMAPGERTVNVTVVGS [r1_238_JUSTAS]
answer-label: class 0

sequence-string: SAGDNMYKYDYENPWYGIKIEVWVSPNGQIVSIKVKIEKVPPVPPKPPIDPEDMVPDPDGKYRSPNDLDSAG [r5_685_TrROS]
answer-label: class 1

sequence-string: SAGGSAGGSAGSPIPVEVKVTTFGPGGVPREAELLTGDPAAFEKAIGKPLPDGSKVEVLLSAGGSAGGSAGG [r11_671_JUSTAS]
answer-label: class 0

sequence-string: SAGGSAGGSAMKIEIEVDPKTNVIYIRVNGLVYRFTKSEDGYIYIEVYDKNGKLIETFRLKLSAGGSAGGSA [r18_333_TrROS_Hall]
answer-label: class 1

sequence-string: SAGGSAGGSAGGKIYYLDKDLFVIDLPDPKTGKPIKIAIGGDPNRPDEILKLAKELAESSAGGSAGGSAGGS [r10_379_TrMRF]
answer-label: class 0

----------
# assay-info: folding stability dG unfold from trypsin proteolysis; higher = more stable
measure: folding stability dG unfold (kcal/mol)

sequence-string: SAGGSAGGSKITIKLIKNGEIVEEKEIEDKKTGKKIKIKAIKKDGKLYLVIEVDGKKYVIPLPSAGGSAGGS [r12_994_TrROS_Hall]
recorded-value: 2.02
//
sequence-string: AAVIPTPTAEPVKVETLSTEVSPSLFPSPAAGGPRVLRTVVTTKTTVAVQTEDAWVEVETTTTTTEVLPPES [r1_112_JUSTAS]
recorded-value: -0.546
//
sequence-string: SAGGSAGGRLEPITEEEALELARLLAEYIRRLFPGDPRPHLVVVPILVPTPEDGYRLFLAVIAESAGGSAGG [r6_844_TrMRF]
recorded-value: 2.74
//
sequence-string: SRIKITVKPKPDGNFYIKIWFPNNGKPFIFPIKNPDAMDEARDDPGQTIEVPEDYLRSLFPDNFTDVEIVSA [r9_390_TrROS]
recorded-value: 1.31
//
sequence-string: SAGGSAGGGEMELVLTVPPEEVTPEQLLELVEEIREALEKGGAKAEPVKIDPEKGVVILFRVDPSAGGSAGG [r6_850_TrMRF]
recorded-value: -0.273
//
sequence-string: SAGGKIEELAKELAKKLNIEKVEVEEKDGKLVVKLVVKDKKTNKYYRITIEVDDDGNIKISIEPLPPSAGGS [r16_433_TrROS_Hall]
recorded-value: 3.91
//
sequence-string: SAGGSAGGSAGLLPIEELLKKNPEPVTFMVKDNDTLYRIEITPKDGKWTIEIEPLPGMKPSAGGSAGGSAGG [r11_549_TrROS]
recorded-value: 0.756

----------
# assay-info: folding stability dG unfold from trypsin proteolysis; higher = more stable
measure: folding stability dG unfold (kcal/mol)

sequence-string: SAGGSAGGSDLVRVEMLITKIVPGTGDPVETVKIEVEVPRSEIPKVIEEIPEGYEVTEIKFIPESAGGSAGG [r6_777_JUSTAS]
recorded-value: 2.05

sequence-string: SAGGSAGGSAGGMNTNPKFVSEEDDKEIYREYNPSTGKETYIIYYPKPNTKKIVPPELISAGGSAGGSAGGS [r10_172_JUSTAS]
recorded-value: -0.634

sequence-string: SAGGSAGGSAWHIRIHPGNEPQWIPIDDLRDKGLPPEELAEELQKKFGFKVEIVDPGWIRVKSAGGSAGGSA [r18_7_TrROS]
recorded-value: -0.284

sequence-string: SAGGSAENDRFIVRVTIQMRNPGDGEKRTHTIPWFEFEPGKPAEEFAIDIADDFGIDNIDVEVYPLSAGGSA [r15_540_TrROS]
recorded-value: 1.35

sequence-string: SAGNRYEVNLTYMYPPDDPGLIEKIKKILRKLGWEIEKVKEQRMPDNKMRMVTHKIRIPGLPPEALKAFSAG [r14_956_TrROS]
recorded-value: 0.918

sequence-string: SAGGSAGGSAGKIEIIKDKKNGKYTVKIRNKDGEEIEIEVDSLEELEELAKKLNIEVEVESAGGSAGGSAGG [r11_1049_TrROS_Hall]
recorded-value: 2.33

sequence-string: SAGGSAGGSAGGSSLASDPTVPPDEPRTVTVLEPEPGGRLRVVTYEETPAGRRPVSALLSAGGSAGGSAGGS [r10_288_JUSTAS]
recorded-value: -0.782

sequence-string: SAGFWIRIDPKNPRIYISGMPPGMIELIAENAGAPDVTPVKPGRPWWDARDNHPDPDAVIPIPPENMMSAGG [r19_270_TrROS]
recorded-value: 0.319

sequence-string: SAGGSAPPIEIEIDKWERDPENGYVYATVKIKLPGKKIEIPIWMDDPPGQAENQVKMLAENIARQLSAGGSA [r15_979_TrROS]
recorded-value: 0.807

sequence-string: SAGGMKVEVVETPTSLQIVTTTISTEKIPFNDVTLTTVTTEVKTIPLPEKPPVGLPYFDPEGKPLLLSAGGS [r8_46_JUSTAS]
recorded-value: -0.0171

sequence-string: SAGGKKTYKVRIEIKVTDPNGKKRTIEIELEVPESEEEAEKLAKELAEKLKEKGYKVEIVKIEVEPLSAGGS [r16_525_TrROS_Hall]
recorded-value: 3.98

sequence-string: SAGGSAGGSAGMKTVTETEFDPAAPVVTTTTSLVTLPPDGKPSITSTTTTTTAVAAPAAAASAGGSAGGSAG [r3_138_JUSTAS]
recorded-value: -0.0492

sequence-string: SAGGSAMKKIPKENVEKVIEFTDKNGKKITIVYNKKTGKAYIFDKKTKKVIEIDMTEDEIKKLLKSSAGGSA [r15_810_TrROS_Hall]
recorded-value: 1.1

sequence-string: SAGGSAGGSAKIMIPVDTPEEVKDIAEEFASNGNKEVEPHEDGWVSIEFPNGVPIEIWLPKDSAGGSAGGSA [r18_126_TrROS]
recorded-value: -0.558

----------
# assay-info: folding stability dG unfold from chymotrypsin proteolysis; higher = more stable

sequence-string: SAGGSMKDIPAEEIAKLFAAKLGYPILDAKVEKNPVKPVYKLYIVVEEKNPGKKFPREITIPSELLSAGGSA [r2_156_TrMRF]
folding stability dG unfold / kJ/mol: 0.82

sequence-string: SAGGILDLAAERNAVSVEVLEVNPEPPTVTVRLTYRNAAGEPRTATFTVELPPPAPPVPLVLPGEATFSAGG [r13_608_TrMRF]
folding stability dG unfold / kJ/mol: 10.3

sequence-string: SAGGSAGGSPSEEARKKGGLTLTITLRYPDGSTVTITYPVSTPLTIPEEFAKNPPKIESIELSSAGGSAGGS [r12_161_JUSTAS]
folding stability dG unfold / kJ/mol: 5.77

sequence-string: SAGMEVVEKIAKELGYENVKVESITPQVSPSGTTTLTITVKISKPGSTKTFTITASPEEIEEEIKKALSSAG [r5_549_JUSTAS]
folding stability dG unfold / kJ/mol: 19.7
